- Test system: E. coli TESEC Mtb Alr
- PROTOCOL: growth (OD600 after 10 h); higher = more growth (less inhibition)
- EXPERIMENTAL_PARAMETERS: arabinose 100000 nM; compound 0.1 mM; raw OD600 reference: median of DMSO wells 0.201, cell-free background 0.041
Where a name gives a salt, the structure may show the parent alone.
Classify as follows. Reported growth greater than or equal to 0.2: Criterion met. Reported growth below: Criterion not met.

- MOLECULE: "NC(=O)OCCCc1ccccc1 [Phenprobamate]"
  CLASS_NAME: "Criterion not met"
- MOLECULE: "NC(=O)C[S+]([O-])C(c1ccccc1)c1ccccc1 (configuration not stated)"
  CLASS_NAME: "Criterion met"
- MOLECULE: "CC(Cc1ccc(O)cc1)NCC(O)c1cc(O)cc(O)c1 (configuration not stated) [Fenoterol hydrobromide]"
  CLASS_NAME: "Criterion not met"
- MOLECULE: "CC(C)CC(N(C)C)C1(c2ccc(Cl)cc2)CCC1 (configuration not stated) [Sibutramine HCl]"
  CLASS_NAME: "Criterion not met"
- MOLECULE: "C[C@]12CC[C@H](O)C[C@@H]1CC[C@@H]1[C@@H]2CC[C@]2(C)C(=O)CC[C@@H]12 [Epiandrosterone]"
  CLASS_NAME: "Criterion not met"
- MOLECULE: "CCNCC(O)c1cccc(O)c1 (configuration not stated) [Etilefrine hydrochloride]"
  CLASS_NAME: "Criterion not met"
- MOLECULE: "CC[C@@]1([C@@H]2O[C@@H]([C@H]3O[C@@](O)(CO)[C@H](C)C[C@@H]3C)C[C@@H]2C)CC[C@H]([C@]2(C)CC[C@]3(C[C@H](O)[C@@H](C)[C@@H]([C@@H](C)[C@@H](OC)[C@H](C)C(=O)O)O3)O2)O1 [Monensin sodium salt]"
  CLASS_NAME: "Criterion met"
- MOLECULE: "CCC1(c2ccc(N)cc2)CCC(=O)NC1=O (configuration not stated) [Glutethimide, para-amino]"
  CLASS_NAME: "Criterion met"
- MOLECULE: "O=c1c2ccccc2[se]n1-c1ccccc1"
  CLASS_NAME: "Criterion met"
- MOLECULE: "C[N+]12CCC(CC1)C(OC(=O)C(O)(c1ccccc1)c1ccccc1)C2 (configuration not stated) [Clidinium bromide]"
  CLASS_NAME: "Criterion not met"
- MOLECULE: "CCCC(C)C1(CC)C(=O)NC(=O)NC1=O (configuration not stated)"
  CLASS_NAME: "Criterion met"
- MOLECULE: "COc1cccc(C2(O)CCCCC2CN(C)C)c1 (configuration not stated) [Tramadol hydrochloride]"
  CLASS_NAME: "Criterion not met"
- MOLECULE: "CN[C@@H]1C[C@@H](c2ccc(Cl)c(Cl)c2)c2ccccc21 [Indatraline hydrochloride]"
  CLASS_NAME: "Criterion not met"
- MOLECULE: "CN1CCC2(C)c3cc(O)ccc3N(C)C12 (single isomer, unassigned; (-)) [(-)-Eseroline fumarate salt]"
  CLASS_NAME: "Criterion met"
- MOLECULE: "CCOC(=O)c1cncn1[C@H](C)c1ccccc1 [Etomidate]"
  CLASS_NAME: "Criterion met"

---

As shown below, each of these compounds has a reported growth value.
- Test system: E. coli TESEC Alr+ wild-type control
- PROTOCOL: growth (OD600 after 10 h); higher = more growth (less inhibition)
- EXPERIMENTAL_PARAMETERS: compound 0.1 mM; raw OD600 reference: median of DMSO wells 0.241, cell-free background 0.041
Counter-ions that a name gives are not always drawn.

- COMPOUND: "C[C@]12CC[C@H]3[C@@H](CCC4=CC(=O)CC[C@@H]43)[C@@H]1CC[C@@H]2O [Nandrolone]"
  growth: 0.154
- COMPOUND: "CNC(=O)Oc1ccc2c(c1)[C@]1(C)CCN(C)[C@@H]1N2C [Eserine hemisulfate salt]"
  growth: 0.229
- COMPOUND: "COc1ccc2c(c1)[C@]13CCCC[C@@H]1[C@H](C2)N(C)CC3 [Dextromethorphan hydrobromide monohydrate]"
  growth: 0.198
- COMPOUND: "CCC1(C)CC(=O)NC(=O)C1 [Bemegride]"
  growth: 0.237
- COMPOUND: "N[C@@H]1C[C@H]1c1ccccc1 [Tranylcypromine hydrochloride]"
  growth: 0.241
- COMPOUND: "CCCC(C)(COC(N)=O)COC(=O)NC(C)C (stereo unspecified) [Carisoprodol]"
  growth: 0.237
- COMPOUND: "CC(=O)O[C@H]1C[C@@H]2CC[C@@H]3[C@H](CC[C@@]4(C)[C@H]3C[C@H]([N+]3(C)CCCCC3)[C@@H]4OC(C)=O)[C@@]2(C)C[C@@H]1[N+]1(C)CCCCC1 [Pancuronium bromide]"
  growth: 0.232
- COMPOUND: "c1ccc2c(c1)Nc1ccccc1S2 [Phenothiazine]"
  growth: 0.157
- COMPOUND: "CO[C@]12C[C@@H](COC(=O)c3cncc(Br)c3)CN(C)[C@@H]1Cc1cn(C)c3cccc2c13 [Nicergoline]"
  growth: 0.174
- COMPOUND: "C[C@]12CC[C@H](O)C[C@H]1CC[C@@H]1[C@@H]2C[C@@H](O)[C@]2(C)[C@@H](C3=CC(=O)OC3)CC[C@]12O [Digoxigenin]"
  growth: 0.228
- COMPOUND: "C[C@]12CCC(=O)C=C1CC[C@@H]1[C@@H]2C(=O)C[C@]2(C)C(=O)CC[C@@H]12 [Adrenosterone]"
  growth: 0.212
- COMPOUND: "C[N+](C)(C)CCCCCCCCCC[N+](C)(C)C [Decamethonium bromide]"
  growth: 0.246
- COMPOUND: "CCC(=O)O[C@H]1CC[C@H]2[C@@H]3CCC4=CC(=O)CC[C@]4(C)[C@H]3CC[C@]12C [Testosterone propionate]"
  growth: 0.157
- COMPOUND: "OC(c1ccccc1)(c1ccccc1)C1CCNCC1 [Azacyclonol]"
  growth: 0.222
- COMPOUND: "CCCN1C[C@H](CSC)C[C@@H]2c3cccc4[nH]cc(c34)C[C@H]21 [Pergolide mesylate]"
  growth: 0.2
- COMPOUND: "C=CCC1(CC(C)C)C(=O)NC(=O)NC1=O [Butalbital]"
  growth: 0.243

---

As shown below, each of these compounds has a reported growth value.
- System: E. coli TESEC Mtb DapB
- PROTOCOL: growth (OD600 after 10 h); higher = more growth (less inhibition)
- EXPERIMENTAL_PARAMETERS: arabinose induction (level): High; compound 0.1 mM; raw OD600 reference: median of DMSO wells […], cell-free background 0.041
Structures can show the parent of a compound that is named as a salt.

- COMPOUND: "Clc1ccc(C(OCCN2CCCCC2)c2ccccc2)cc1 (stereo unspecified) [Cloperastine hydrochloride]"
  TARGET_OR_TEST_SYSTEM: "E. coli TESEC Mtb DapB"
  growth: 0.146
- COMPOUND: "CC(O)(CS(=O)(=O)c1ccc(F)cc1)C(=O)Nc1ccc(C#N)c(C(F)(F)F)c1 (stereo unspecified) [Bicalutamide]"
  TARGET_OR_TEST_SYSTEM: "E. coli TESEC Mtb DapB"
  growth: 0.196
- COMPOUND: "C[C@]12C/C(=C/O)C(=O)C[C@@H]1CC[C@@H]1[C@@H]2CC[C@@]2(C)[C@H]1CC[C@]2(C)O"
  TARGET_OR_TEST_SYSTEM: "E. coli TESEC Mtb DapB"
  growth: 0.158
- COMPOUND: "C[C@]12CCC(=O)C=C1CC[C@@H]1[C@@H]2C(=O)C[C@]2(C)C(=O)CC[C@@H]12"
  TARGET_OR_TEST_SYSTEM: "E. coli TESEC Mtb DapB"
  growth: 0.202
- COMPOUND: "COc1ccc(CCN2CCC(Nc3nc4ccccc4n3Cc3ccc(F)cc3)CC2)cc1"
  TARGET_OR_TEST_SYSTEM: "E. coli TESEC Mtb DapB"
  growth: 0.0465
- COMPOUND: "Fc1ccc(C(OCCN2CCN(CCCc3ccccc3)CC2)c2ccc(F)cc2)cc1"
  TARGET_OR_TEST_SYSTEM: "E. coli TESEC Mtb DapB"
  growth: 0.0461
- COMPOUND: "Cc1cc(C(C#N)c2ccc(Cl)cc2)c(Cl)cc1NC(=O)c1cc(I)cc(I)c1O (stereo unspecified)"
  TARGET_OR_TEST_SYSTEM: "E. coli TESEC Mtb DapB"
  growth: 0.0896
- COMPOUND: "CCC1(c2ccc(N)cc2)CCC(=O)NC1=O (stereo unspecified) [Glutethimide, para-amino]"
  TARGET_OR_TEST_SYSTEM: "E. coli TESEC Mtb DapB"
  growth: 0.189
- COMPOUND: "CC(C)(C)NCC(O)c1cc(Cl)c(N)c(Cl)c1 (stereo unspecified) [Clenbuterol hydrochloride]"
  TARGET_OR_TEST_SYSTEM: "E. coli TESEC Mtb DapB"
  growth: 0.185
- COMPOUND: "CCCN1C[C@H](CSC)C[C@@H]2c3cccc4[nH]cc(c34)C[C@H]21 [Pergolide mesylate]"
  TARGET_OR_TEST_SYSTEM: "E. coli TESEC Mtb DapB"
  growth: 0.2
- COMPOUND: "C[C@@H]1CN([C@H]2CC[C@](C#N)(c3ccc(F)cc3)CC2)CC[C@]1(C(=O)O)c1ccccc1 [Levocabastine hydrochloride]"
  TARGET_OR_TEST_SYSTEM: "E. coli TESEC Mtb DapB"
  growth: 0.192
- COMPOUND: "CCC1=C[C@H]2CN3CCc4c([nH]c5ccccc45)[C@](C(=O)OC)(C2)[C@H]13"
  TARGET_OR_TEST_SYSTEM: "E. coli TESEC Mtb DapB"
  growth: 0.167
- COMPOUND: "CCC(COC(=O)c1cc(OC)c(OC)c(OC)c1)(c1ccccc1)N(C)C (stereo unspecified)"
  TARGET_OR_TEST_SYSTEM: "E. coli TESEC Mtb DapB"
  growth: 0.166
- COMPOUND: "C[C@]12CC[C@H](O)C[C@@H]1CC[C@@H]1[C@@H]2CC[C@]2(C)C(=O)CC[C@@H]12 [Epiandrosterone]"
  TARGET_OR_TEST_SYSTEM: "E. coli TESEC Mtb DapB"
  growth: 0.152
- COMPOUND: "CC(C)(N)Cc1ccccc1 [Phentermine hydrochloride]"
  TARGET_OR_TEST_SYSTEM: "E. coli TESEC Mtb DapB"
  growth: 0.206
- COMPOUND: "CN(C)C(=O)Oc1cc(OC(=O)N(C)C)cc(C(O)CNC(C)(C)C)c1 (stereo unspecified) [Bambuterol hydrochloride]"
  TARGET_OR_TEST_SYSTEM: "E. coli TESEC Mtb DapB"
  growth: 0.193
